# measured.on: T1, ZFP SBS#666 (synthetic)
# T1 chain: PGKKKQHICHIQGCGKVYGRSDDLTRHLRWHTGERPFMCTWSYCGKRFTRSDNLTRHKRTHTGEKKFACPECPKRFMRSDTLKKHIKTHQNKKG
# method.summary: EMSA
# condition.details: tags: MBP fusion
test.readout: pKd
Worth noting: pKd values are minus log10 of concentrations stated in mol/L.

What value of pKd has been recorded for this entry: GCGGAGGCGC (dsDNA) DNA 1: GCGGAGGCGC DNA 2: GCGCCTCCGC
9.30
